tgt: KRas G12V (Homo sapiens, UniProt P01116, G12V)
Sequence (P01116 1-169 isoform P01116-2 G12V): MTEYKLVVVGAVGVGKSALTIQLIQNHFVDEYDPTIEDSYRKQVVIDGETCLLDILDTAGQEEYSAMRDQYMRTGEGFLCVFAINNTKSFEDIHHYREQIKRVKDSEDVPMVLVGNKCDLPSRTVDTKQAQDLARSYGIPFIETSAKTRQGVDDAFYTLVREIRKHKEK
method-description: biochemical;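 note: KRas binding measured by TR-FRET displacement at room temperature, IC50 fitted from percent of control values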
property-name: pIC50
Give bare numbers, as −log10 of the molar value.

Below: 4 molecules and their reported pIC50.
C#Cc1c(F)ccc2cccc(-c3ncc4c(N5CCCC6(CNC(=O)C6)C5)nc(OC[C@@]56CCCN5C[C@H](F)C6)nc4c3F)c12 (some centres unmarked) [Example 36] : 7.70
O=c1[nH][nH]cc1CNc1nc(OCC23CCCN2CCC3)nc2c(F)c(-c3cccc4cccc(F)c34)ncc12 [Example 230] : 5.10
CCc1c(F)ccc2cc(O)cc(-c3ncc4c(N5CCC[C@@]6(CNC(=O)C6)C5)nc(OC[C@]56CCCN5C[C@@H](O)C6)nc4c3F)c12 [Example 305] : 8.22
CCc1c(F)ccc2cc(O)cc(-c3ncc4c(NCC5(O)CCCCC5)nc(OC[C@@]56CCCN5C[C@H](F)C6)nc4c3F)c12 [Example 52] : 7.60

Provide pIC50 values for the following items, in order.
1. NC(=O)N1CC(Nc2nc(OCC34CCCN3CCC4)nc3c(F)c(-c4cccc5cccc(Cl)c45)ncc23)C1 [Example 107]
2. NS(=O)(=O)CC1CCCN(c2nc(OCC34CCCN3CCC4)nc3c(F)c(-c4cccc5ccccc45)ncc23)C1 (centres unmarked) [Example 436]
3. Cc1cc(N)nc(-c2ncc3c(N4CCCC(C)(O)C4)nc(OC[C@@]45CCCN4C[C@H](F)C5)nc3c2F)c1C(F)(F)F (some centres unmarked) [Example 459]
4. O=c1cc(CNc2nc(OCC34CCCN3CCC4)nc3c(F)c(-c4cccc5cccc(F)c45)ncc23)[nH][nH]1 [Example 231]
5. CCc1c(F)ccc2cc(O)cc(-c3ncc4c(N5C[C@@H]6C(=O)NNC(=O)[C@@H]6C5)nc(OC[C@@]56CCCN5C[C@H](F)C6)nc4c3F)c12 [Example 363]
6. Cc1cc2[nH]ncc2c(-c2ncc3c(N4CCCC(C)(O)C4)nc(OCC45CCCN4CCC5)nc3c2F)c1C1CC1 (centres unmarked) [Example 144]

1: 5.47; 2: 6.19; 3: 6.12; 4: 4.61; 5: 7.24; 6: 7.32

Answer for every listed entry: what is its pIC50? The entries follow.
1. CCc1cccc2cccc(-c3ncc4c(N5CC6CC(O)C(C6)C5)nc(OCC56CCCN5CCC6)nc4c3F)c12 (centres unmarked) [Example 290]
2. CC1(O)CCCN(c2nc(OCC34CCCN3CCC4)nc3c(F)c(-c4cccc5cccc(Cl)c45)ncc23)C1 (centres unmarked) [Example 1]
3. CS(=O)(=O)C1CCCCCN(c2nc(OCC34CCCN3CCC4)nc3c(F)c(-c4cccc5cccc(F)c45)ncc23)C1 (centres unmarked) [Example 251]
4. CCc1cccc2cccc(-c3ncc4c(N5CCOCC(C)(O)C5)nc(OCC56CCCN5CCC6)nc4c3F)c12 (centres unmarked) [Example 291]

6.77
6.25
5.41
6.56

Please state, for each entry, its recorded pIC50.
1. NS(=O)(=O)CC1CCCN(c2nc(OCC34CCCN3CCC4)nc3c(F)c(-c4cccc5cccc(CO)c45)ncc23)C1 (centres unmarked) [Example 439]
2. OC1CCN(c2nc(OCC34CCCN3CCC4)nc3c(F)c(-c4cccc5cccc(F)c45)ncc23)CC1 [Example 11]
3. Fc1c(-c2cccc3cccc(F)c23)ncc2c(N3CCCCC3)nc(OCC34CCCN3CCC4)nc12 [Example 21]

1. 5.24
2. 4.68
3. 5.01

Reference for the values: patent US12398154B2
